Origin of values: ChEMBL document CHEMBL1155638

Field: selectivity ratio. Provide a value for each of the molecules that follow.
ASSAY_TEXT: Therapeutic index, IC50 for human T-lymphoid H9 cells to EC50 for HIV1 3B isolate
Type: cell-based
TEST_PARAMETERS: read-out: Ratio IC50/EC50
Numbers only.

{"MOLECULE": "CC1(C)CC[C@]2(C(=O)O)CC[C@]3(C)C(=CC[C@@H]4[C@@]5(C)CC[C@H](OC(=O)CC(C)(C)C(=O)O)C(C)(C)[C@@H]5CC[C@]43C)[C@@H]2C1", "selectivity ratio": 22300}

Hey, quick one: what's selectivity ratio for each of these?
1. C[C@H]1[C@H](C)CC[C@]2(C(=O)O)CC[C@]3(C)C(=CC[C@@H]4[C@@]5(C)CC[C@H](OC(=O)CCC(=O)O)C(C)(C)[C@@H]5CC[C@]43C)[C@H]12
2. C[C@H]1[C@H](C)CC[C@]2(C(=O)O)CC[C@]3(C)C(=CC[C@@H]4[C@@]5(C)CC[C@H](OC(=O)CC(C)(C)C(=O)O)C(C)(C)[C@@H]5CC[C@]43C)[C@H]12
3. C[C@@H]1CC[C@]2(C(=O)O)CC[C@]3(C)C(=CC[C@@H]4[C@@]5(C)CC[C@H](O)C(C)(C)[C@@H]5CC[C@]43C)[C@@H]2[C@]1(C)O [POMOLIC ACID]

Response:
[2.9, 23.6, 16.3]
